- Test system: EKVX NSCLC
- measurementProtocol: NCI-60 one-dose screen, 48 h
- experimentalConditions: 10 µM
Compounds without any hit were thinned out: in the full panel of roughly 83,000, 20% have a hit. Activity calls are given as the source filed them. How the source made its calls: active means growth percent below 10; inactive means the rest.
Your response should consist of one outcome taken from active, inactive

Consider the worked cases shown below.
COc1ccc(C(=O)N/N=C/c2cc(C(F)(F)F)ccc2Cl)cc1 : inactive
O=C(CCl)Nc1ccc(Cc2ccc(NC(=O)CCl)cc2)cc1 : active
COc1ccc(C(=O)CSc2nc(-c3cc(OC)ccc3OC)cc(-c3ccc(OC)cc3)c2C#N)cc1 : inactive

Which outcome did this test record for the molecule COc1ccc(C(=O)N2C=Cc3ccccc3C2C#N)cc1 (stereo unspecified) ?
inactive

Which outcome did this test record for the molecule N#CC1=CC2CN(Cc3ccccc3)C1C1C(=O)N(c3ccccc3)C(=O)C21 (stereo unspecified) ?
inactive

Which outcome did this test record for the molecule O=C(CCCSc1nc(-c2ccccc2)cc(-c2ccc(Cl)cc2)n1)NO ?
active

Which outcome did this test record for the molecule O=C1c2ccccc2C(=O)c2c1ccc(C(Br)Br)c2[N+](=O)[O-] ?
inactive

Which outcome did this test record for the molecule O=[N+]([O-])c1ccc(NCSc2ccc(Cl)cc2)cc1 ?
inactive

Which outcome did this test record for the molecule Cc1ccc(NCCN(C)CC(C)O)c2c(=O)c3ccc(Cl)cc3sc12 (stereo unspecified) ?
inactive

Which outcome did this test record for the molecule COc1ccc(-c2cc(-c3cc(OC)ccc3OC)nc(N)c2C#N)cc1 ?
inactive

Which outcome did this test record for the molecule OCC1OC(n2cnc3c(NCc4ccco4)ncnc32)C(O)C1O (stereo unspecified) ?
inactive

---

- System: SF-268 CNS
- measurementProtocol: NCI-60 one-dose screen, 48 h (100 = growth as untreated, 0 = no growth, -100 = all killed)
- experimentalConditions: 10 µM
This is part of a sample that, as a whole, favours compounds with a hit. Of some 83,000 tested, about 20% had one in any assay.
growth values, listed per item
Quick note: give the figure in %, leave out the unit.

CC(C1=C(CN(C(=O)Cc2cn(-c3ccccc3)nc2-c2ccc(Cl)cc2)C(C)C)Cc2ccccc21)c1ccccn1 (stereo not given) : 74.5
Cc1cc(=O)n2nnc3cc(C(F)(F)F)ccc3n12 : 107
CNC(=O)c1cc(Oc2ccc3c(c2)sc2nc(-c4ccc(NC(=O)Nc5ccc(Cl)c(C(F)(F)F)c5)cc4)cn23)ccn1 : 84.8
O=C(CC(CC(=O)c1ccccc1)c1ccccc1O)c1ccccc1 : 89.8
OCCn1cccn1 : 100
COc1ccc(-c2cc(-c3ccc(Cl)cc3)nc(SCCCC(=O)NO)n2)cc1 : 2.08
COc1cc2cc(Oc3ccc(NC(=O)Nc4ccc(Cl)c(Cl)c4)cc3)c(C)nc2cc1OC : 43.7
Cc1ccc(S(=O)(=O)N(C)CCCCCC(=O)O)cc1 : 99

Supply growth measured with SF-268 CNS for COc1cc(/C=C2\CCCC3=C2NC(N)=NC3c2cc(OC)c(OC)c(OC)c2)cc(OC)c1OC (stereo not given) .
15.1

Supply growth measured with SF-268 CNS for O=C(N/N=C/c1ccc(Cl)cc1)c1ccc(Cc2n[nH]c(=O)c3cccnc23)cc1 .
98.6

---

- Tested on: TK-10 renal
- measurementProtocol: NCI-60 one-dose screen, 48 h (100 = growth as untreated, 0 = no growth, -100 = all killed)
- experimentalConditions: 10 µM
Compounds without any hit were thinned out: in the full panel of roughly 83,000, 20% have a hit.
growth values, listed per item
Quick note: give the figure in %, leave out the unit.

Supply growth measured with TK-10 renal for CC(=O)Nc1ccc(CC[C@H]2CCC/C=C/[C@@H]3C[C@H](O)C[C@H]3[C@H](O)/C=C/C(=O)O2)cc1 .
-45.5

Supply growth measured with TK-10 renal for CC(=O)C1N=NCC1c1ccccc1 (stereo not drawn) .
96.1

Supply growth measured with TK-10 renal for CCN(CC)CCOc1cccc2c1C(=O)c1ccccc1C2=O .
97.6

Supply growth measured with TK-10 renal for CC[C@@H](C(=O)[C@H](C)[C@H](O)[C@@H](C)[C@H]1O[C@H]([C@@H](CC)C(=O)O)CC[C@H]1C)C1O[C@]2(C=C[C@@H](O)[C@]3(CC[C@@](C)([C@H]4CC[C@](O)(CC)[C@H](C)O4)O3)O2)[C@H](C)C[C@@H]1C (stereo partly drawn) .
56.5

Supply growth measured with TK-10 renal for CN(C)CCCSc1ccccc1NC1=C(Cl)C(=O)C(Nc2ccccc2SCCCN(C)C)=C(Cl)C1=O .
13.8

Supply growth measured with TK-10 renal for COc1cc2nc(SCC(=O)Nc3cc(OC)c(OC)c(OC)c3)n(Cc3ccccc3)c(=O)c2cc1OC .
-12.5

Supply growth measured with TK-10 renal for C=CCN(CC=C)C(=O)[C@H](CC)[C@@H]1CC[C@@H](C)[C@@H]([C@H](C)[C@@H](O)[C@@H](C)C(=O)[C@H](CC)C2O[C@]3(C=CC(=O)[C@]4(CC[C@@](C)([C@H]5CC[C@](O)(CC)[C@H](C)O5)O4)O3)[C@H](C)C[C@@H]2C)O1 (stereo partly drawn) .
35.5

Supply growth measured with TK-10 renal for Cc1nn(-c2ccccc2)c2nc(Cl)c(C=O)c(-c3ccccc3)c12 .
113

---

- Tested on: SN12C renal
- measurementProtocol: NCI-60 one-dose screen, 48 h
- experimentalConditions: 10 µM
This is part of a sample that, as a whole, favours compounds with a hit. Of some 83,000 tested, about 20% had one in any assay. Activity calls are given as the source filed them. Rule for the calls: active = growth percent below 10; inactive = the rest.
Your response should consist of one outcome taken from active, inactive

c1cncc(-c2csc(-c3c[nH]c4ccccc34)n2)c1 : inactive
O=C(Nc1ccc2c(O)cc(S(=O)(=O)O)cc2c1)c1ccc([N+](=O)[O-])cc1 : inactive

Which outcome did this test record for the compound Cc1cc(SCc2ccccc2)nc(N)n1 ?
inactive

Which outcome did this test record for the compound Clc1ccc(C2=NN=C3C(Cc4ccccc4)=Nc4ccccc4N3C2)cc1 ?
inactive

Which outcome did this test record for the compound O=C(/C=C/c1cccc(B(O)O)c1)c1cccc(B(O)O)c1 ?
active

Which outcome did this test record for the compound COc1cc(C2CC(c3ccccc3)=NN2C(C)=O)cc(OC)c1OC (stereo not given) ?
inactive

Which outcome did this test record for the compound O=[N+]([O-])c1ccc(/C(=C/c2ccccc2)[n+]2ccccc2)cc1 ?
inactive

Which outcome did this test record for the compound CC(C)CCN(CCC(C)C)CC(=O)Nc1ccc(S(=O)(=O)c2ccc(NC(=O)CN(CCC(C)C)CCC(C)C)cc2)cc1 ?
inactive

Which outcome did this test record for the compound COc1ccc(-c2cc(-c3cc(OC)ccc3OC)nc(N)c2C#N)cc1 ?
inactive

Which outcome did this test record for the compound COc1nc2c(c(=O)n1C)CN(c1ccccc1)C(=O)C(C)N2 (stereo not given) ?
inactive

---

- Tested on: M14 melanoma
- measurementProtocol: NCI-60 one-dose screen, 48 h (100 = growth as untreated, 0 = no growth, -100 = all killed)
- experimentalConditions: 10 µM
This is part of a sample that, as a whole, favours compounds with a hit. Of some 83,000 tested, about 20% had one in any assay.
growth values, listed per item
Quick note: give the figure in %, leave out the unit.

Here are 10 compounds together with their reported answers.
CCN(CC)c1ccc(/C=C2\SC(=O)C(Nc3nnc(-c4cccnc4SCc4ccccc4)o3)C2=O)cc1 (stereo unspecified) : -11.6
Nc1ccccc1NC(=O)c1ccc(CCCC(=O)Nc2ccc(C3CC3N)cc2)cc1 (stereo unspecified) : 27
O=C1c2ccccc2C(=O)N1CCCCNc1ccccc1 : 98.9
S=C(NCc1ccccc1)NCc1ccccc1 : 101
CCOC(=O)c1sc2ncnc(Nc3ccc4c(cnn4C(=O)Nc4ccc(C)c(Cl)c4)c3)c2c1C : 103
CN(C)CCOc1ccccc1NC1=C(Cl)C(=O)C(Nc2ccccc2OCCN(C)C)=C(Cl)C1=O : 92.9
Cc1cc(Br)nnc1Br : 96.8
CN1CCN(CCC(=O)Nc2cccc(-n3cc(-c4ccncc4)c(-c4ccc(Cl)c(O)c4)n3)c2)CC1 : 12.3
Nc1ccc(/C=N/Nc2ccnc3c(O)cccc23)c2cccnc12 : 53.8
O=C(CCC(C(=O)c1ccccc1)c1ccccc1)c1ccccc1 (stereo unspecified) : 52.2

Supply growth measured with M14 melanoma for Cc1cc(CCNC=O)c(C)c2c1sc1ccccc12 .
118

---

growth values, listed per item
- Tested on: DU-145 prostate
- measurementProtocol: NCI-60 one-dose screen, 48 h (100 = growth as untreated, 0 = no growth, -100 = all killed)
- experimentalConditions: 10 µM
The panel holds about 83,000 compounds, 20% with a hit somewhere; the sample as a whole holds those more often.
Quick note: give the figure in %, leave out the unit.

Here are 4 compounds together with their reported answers.
CC(=O)N[C@H](C(=O)N[C@@H](CCCNC(=N)N)C(=O)N[C@@H](CCCCN)C(=O)N[C@@H](CCCNC(=N)N)C(=O)N[C@]1(C)CCC/C=C\CCC[C@@](C)(C(=O)N[C@@H](CC(C)C)C(=O)N[C@@H](CC(C)C)C(=O)N[C@@H](CCC(N)=O)C(=O)N[C@@H](CCC(=O)O)C(=O)N[C@@H](CCCNC(=N)N)C(=O)N[C@@H](CCC(=O)O)C(=O)N[C@@H](CC(C)C)C(=O)N[C@H](C(=O)N[C@@H](CCC(=O)O)C(N)=O)C(C)C)NC(=O)[C@H](CCCNC(=N)N)NC(=O)[C@H](CC(C)C)NC1=O)C(C)C : 99.7
COc1ccc2c(c1)CC=C1[C@@H]2CC[C@]2(C)C(=O)/C(=N/O)C[C@@H]12 : 96.6
COc1cc(-c2nn(-c3cccc(NC(=O)NCCNC(=O)c4cccc(C(F)(F)F)c4)c3)cc2-c2ccncc2)ccc1Cl : 48.9
CN(C)CCCOc1cccc(NC2=C(Cl)C(=O)C(Nc3cccc(OCCCN(C)C)c3)=C(Cl)C2=O)c1 : -97.7

# return recorded growth for input CCNc1nc(C(F)(F)F)nc2c1sc(=S)n2-c1ccccc1
101
